All values here come from patent US20040116336A1.

So I've got a bunch of binders here, and I need their pIC50 values.
Biological target: APJ (orphan G protein-coupled receptor protein)
Sequence (P35414 whole entry): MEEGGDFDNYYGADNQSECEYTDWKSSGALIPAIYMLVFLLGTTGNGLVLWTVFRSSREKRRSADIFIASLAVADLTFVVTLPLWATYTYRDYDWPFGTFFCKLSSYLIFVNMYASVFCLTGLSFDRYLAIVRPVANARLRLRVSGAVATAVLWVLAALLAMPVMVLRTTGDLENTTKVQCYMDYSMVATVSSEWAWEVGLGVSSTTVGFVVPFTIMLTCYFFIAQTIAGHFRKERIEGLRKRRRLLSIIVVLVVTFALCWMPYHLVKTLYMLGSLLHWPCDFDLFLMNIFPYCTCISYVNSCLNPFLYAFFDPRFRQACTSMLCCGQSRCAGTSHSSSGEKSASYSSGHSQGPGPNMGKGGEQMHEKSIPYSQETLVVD
Assay: radioligand competition, compound of Ref. Ex. 2 as labelled ligand, CHO-A10 membrane fraction
Non-standard residues stand in square brackets, D forms with d. No end group written: not given here. Cha = N[C@@H](CC1CCCCC1)C(=O)O
Answers are plain numbers, as −log10 of the molar value.

Quick batch: pIC50 for everything below.
1. XRPRLSHKGPMX (N-terminal pGlu; C-terminal Cha; peptide derivative; Xaa on the 1st position means pGlu; Xaa on the 12th position means Cha) [pGlu-Arg-Pro-Arg-Leu-Ser-His-Lys-Gly-Pro-Met-Cha]
2. RRQRPRLSHKGP[Cha]PX (not fully specified (residue 15); printed as Arg-Arg-Gln-Arg-Pro-Arg-Leu-Ser-His-Lys-Gly-Pro-Cha-Pro-Phe(Cl)) [Arg-Arg-Gln-Arg-Pro-Arg-Leu-Ser-His-Lys-Gly-Pro-Cha-Pro-Phe(Cl)]
3. RPRLFARGP[Cha]PX (not fully specified (residue 12); printed as Arg-Pro-Arg-Leu-Phe-Ala-Arg-Gly-Pro-Cha-Pro-Phe(Cl)) [Arg-Pro-Arg-Leu-Phe-Ala-Arg-Gly-Pro-Cha-Pro-Phe(Cl)]

result:
[8.89, 9.48, 9.42]
